# tested.target: SIX1-Q177R homeodomain (human, UniProt Q15475 108-198, Q177R)
# Sequence: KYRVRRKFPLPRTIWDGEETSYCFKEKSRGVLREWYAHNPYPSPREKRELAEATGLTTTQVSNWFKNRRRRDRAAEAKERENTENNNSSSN
# assay.procedure: universal protein binding microarray; Universal all-10-mer PBM (8x60K, AMADID 030236), 300 nM GST-tagged protein, Alexa Fluor 488 anti-GST; buffer, salt, pH and temperature not stated (as in Berger); high values mean tight binding
# experimental.conditions: protein: ivt; tags: N-terminal GST; dsDNA, one strand shown
In all, about 33,000 sequences were measured (“e-score”: median about -0.05, highest 2% from about 0.38 on). The entries come from a sample that favours the highest values as a whole.
quantity.kind: binding signal (E-score)
Your answer should be a plain number; it is taken to be in E-score.

Example cases with answers are listed next.
{"entry.sequence": "CTACACGA", "u": "E-score", "binding signal": 0.388}
{"entry.sequence": "TAATCACA", "u": "E-score", "binding signal": 0.213}
{"entry.sequence": "CACGGGCG", "u": "E-score", "binding signal": 0.204}
{"entry.sequence": "CAACACGC", "u": "E-score", "binding signal": 0.363}
{"entry.sequence": "CTACACGC", "u": "E-score", "binding signal": 0.403}
{"entry.sequence": "CTACACAG", "u": "E-score", "binding signal": 0.161}
{"entry.sequence": "CACGGGAG", "u": "E-score", "binding signal": 0.17}
{"entry.sequence": "GTACACGA", "u": "E-score", "binding signal": 0.419}

Measured binding signal of GGTGTTAC : 0.474

Measured binding signal of AGTGTTAT : 0.395

Measured binding signal of AGTATCAT : 0.259

Measured binding signal of ATGGTGTG : 0.405

Measured binding signal of GGCGTTAC : 0.154

Measured binding signal of AGGGTACA : 0.237

Measured binding signal of CAACGCCG : 0.164

Measured binding signal of ACGCCCCC : 0.19

Measured binding signal of ATACGCCA : 0.151

Measured binding signal of ATACTCTC : 0.158

Measured binding signal of CACCTATA : 0.301

Measured binding signal of ACCCCGCC : 0.271

Measured binding signal of CTACACAC : 0.297

Measured binding signal of CGTGTCGA : 0.404

Measured binding signal of ACACGCCG : 0.404

Measured binding signal of CTGGTGTA : 0.484

Measured binding signal of CGAGTCGA : 0.151

Measured binding signal of CTGGTGTC : 0.483

Measured binding signal of AGTGTTTC : 0.299

Measured binding signal of ACCCTTAG : 0.172

Measured binding signal of CGATACTA : 0.157

Measured binding signal of ACCCGCCG : 0.258
